# experimentDescription: antimalarial activity against Dd2 strain (AID 2302);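 also: 0% = DMSO untreated growth and 100% = chloroquine plus artemisinin killed control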
# protocolConditions: P. falciparum Dd2 in RBCs, LDH growth readout, 72 h; at 2 µM
Calls of active or inactive are those of the source.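 The calls were made as follows: active = growth inhibition above 50% at the single 2 µM test dose, taken to imply half-maximal potency below 2 µM; inactive = the rest.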
Possible outcomes: active, inactive

compound=Fc1ccccc1COc1ccc(Nc2ncnc3ccc(-c4nnc(C(F)(F)F)o4)cc23)cc1Cl classlabel=inactive
compound=CN(C)Cc1cccc2[nH]c(-c3csc(Cc4cc(Cl)ccc4OCc4ccccc4)n3)nc12 classlabel=active
compound=Cc1ccc(-c2nc3cc(NC(=O)c4ccc([N+](=O)[O-])o4)ccc3o2)cc1Cl classlabel=active
compound=Cc1cc(N(C)CCCN2CCCCC2)nc(Nc2ccc(Cl)cc2)n1 classlabel=active
compound="CC(C)c1ccc(CN2CCC(CNC(=O)c3cc(-c4ccc(N(C)C)cc4)cs3)C2)cc1 (stereo not given)" classlabel=inactive
compound=CC(C)(C)C(C)(C)Cc1ccc(O)c(CN2CCN(c3ccccc3)CC2)c1 classlabel=active
compound=FC(F)(F)COc1ccc2ccccc2c1CCNCCCCNCCc1c(OCC(F)(F)F)ccc2ccccc12 classlabel=active
compound=Cc1[nH]c(C)c(-c2ccc(-c3ccc(OC(F)(F)F)cc3)nc2)c(=O)c1Br classlabel=active
compound="COc1cccc(Nc2nccc(NCC(O)c3ccc(C(F)(F)F)cc3)n2)c1 (stereo not given)" classlabel=inactive
compound=CC(C)c1cccc(OCC2CCN(c3ncc(C(=O)Nc4ccccc4)cc3Cl)CC2)c1 classlabel=active
compound=O=C(NCCc1ccccc1)N(Cc1cccc(-c2ccc(CNCc3ccc4c(c3)OCO4)cc2)c1)C1CCN(Cc2ccccc2)CC1 classlabel=active
compound=Cc1ccc(NC(=O)c2ccc(CN3CCCN(Cc4cccc(Cl)c4)CC3)cc2)cc1C classlabel=inactive
compound="CCN(CC)CCCC(C)Nc1cc(C)nc2cc(Cl)ccc12 (stereo not given)" classlabel=inactive
compound=CC(C)CN1C(=O)c2ccc(C(=O)Nc3nccs3)cc2C1=O classlabel=inactive
compound=CNC(=O)Cc1ccc(C(=O)Nc2cccc(-c3cccc(-c4nc5c(C)cccc5[nH]4)c3)c2)cc1 classlabel=active
compound="CC1=C(C(=O)Nc2cc3cn[nH]c3cc2F)C(c2cccc(O)c2F)CC(=O)N1 (stereo not given)" classlabel=active
compound=COc1cc2nc(Nc3ccc(N4CCOCC4)cc3)nc(N)c2cc1OC classlabel=inactive
compound=O=C(/C=C/c1ccc(Cl)c(Cl)c1)N1CCC(CCN2CCC(c3c[nH]c4ccncc34)CC2)CC1 classlabel=active
compound=CCc1cc2c(=O)c(-c3nc(C)cs3)c([C@H](N)Cc3ccc(O)cc3)oc2cc1O classlabel=inactive
compound=COc1ccc2nc(C)cc(NN=Cc3ccncc3)c2c1 classlabel=active

====

# experimentDescription: antimalarial activity against Dd2 strain (AID 2302);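 also: 0% = DMSO untreated growth and 100% = chloroquine plus artemisinin killed control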
# protocolConditions: P. falciparum Dd2 in RBCs, LDH growth readout, 72 h; at 2 µM; active compounds read high
measureName: growth inhibition (%)

compound=CC(C)N1CCN(c2ccc(OCCCCN3CCN(c4cccc(Cl)c4Cl)CC3)c(C(F)(F)F)c2)CC1 scaleunit=% measured=28
compound=Oc1cc(Nc2ccnc3cc(I)ccc23)ccc1F scaleunit=% measured=99
compound="Cc1noc(-c2ccc3c(c2)CCN(CCC2CCC(NC(=O)/C=C/c4ccc(F)cc4)CC2)CC3)n1 (stereo not given)" scaleunit=% measured=39
compound=Cc1c(CNCCCNc2cc(=O)c3ccccc3[nH]2)sc(/C=N/O)c1Br scaleunit=% measured=-2
compound=C=C(C)CSc1nc2c(c(=O)n1CCc1ccccc1)C1(CCCC1)Cc1ccccc1-2 scaleunit=% measured=80
compound=CC(=O)Nc1ncc(C(=O)Nc2cccc(-c3cccc(-c4nc5ccc(C(F)(F)F)cc5[nH]4)c3)c2)s1 scaleunit=% measured=99
compound=Cc1cc(N[C@@H](Cc2ccccc2)C(=O)NCc2cccs2)nc(NCCc2cccnc2)n1 scaleunit=% measured=38
compound=Cc1ncc(CN2CCC(C(=O)Nc3ccc(-c4nc5ccccc5o4)cc3)CC2)s1 scaleunit=% measured=92
compound=CC(C)(C)c1ccc(OCCCON2C(N)=NC(N)=NC2(C)C)cc1 scaleunit=% measured=76
compound=CCN(CC)CCN(Cc1ccc(-c2ccc(C(F)(F)F)cc2)cc1)C(=O)Cn1c(SCc2ccc(F)cc2)cc(=O)c2ccccc21 scaleunit=% measured=70
compound=CCc1ccccc1N1CCN(CCCC(=O)c2ccc(NC(=O)c3ccc(Cl)cc3)cc2)CC1 scaleunit=% measured=4
compound=O=C1CCCN1CCCNCc1ccc(-c2cccc(-c3nc4ccc(C(F)(F)F)cc4[nH]3)c2)cc1 scaleunit=% measured=98
compound=Cc1cc(CNCCCCCNCc2cccc([N+](=O)[O-])c2)ccc1O scaleunit=% measured=-2
compound="CC[C@H]1CN2CCc3c([nH]c4ccccc34)[C@@H]2C[C@@H]1CC1c2cc(OC)c(OC)cc2CCN1C (stereo not given in full)" scaleunit=% measured=45
compound=CC(C)COc1cc(C(=O)Nc2cnc3ccccc3c2)ccc1[N+](=O)[O-] scaleunit=% measured=56
compound="CCCCCCc1cc(OC)c(OC)cc1C(C)Nc1ccnc2cc(Cl)ccc12 (stereo not given)" scaleunit=% measured=79
compound="Oc1c(CN2CCCC(C(F)(F)F)C2)cc(Cl)c2ccccc12 (stereo not given)" scaleunit=% measured=53
compound="Cc1cccc(-n2c(Nc3ccc(C)c(Cl)c3)nc3ccc(S(=O)(=O)NC(C)C(C)C)cc32)c1 (stereo not given)" scaleunit=% measured=97
compound=Cc1ccccc1N1CCN(c2ccc(C(=O)Nc3ccccc3)cc2)CC1 scaleunit=% measured=91
compound=FC(F)(F)c1cc(CNCCCNc2nc3ccncc3[nH]2)ccc1Cl scaleunit=% measured=15

====

# experimentDescription: human hepatoma cell viability loss – ATP luminescence, cytotoxicity control for P. falciparum antimalarial project, primary screen (AID 2303);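 also: 0% = DMSO wells and 100% = digitonin-killed cells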
# protocolConditions: HepG2 viability, 24-48 h, at 10 µM, active compounds read high
Entries are grouped by inhibition into these classes: bucket A (below 6%), bucket B (6% to below 20%), bucket C (20% or more)

compound=Oc1ccc(CCNc2nc(NCc3ccccc3-c3ccc(F)cc3)nc(N3CCNCC3)n2)cc1 classlabel="bucket B"
compound=COc1cc(C=NNc2cc(C)nc3c(OC)cccc23)cc(OC)c1OC classlabel="bucket A"
compound="O=C(NCCCc1ccccc1)c1csc(C2CCCN(C(=O)c3ccc(O)c(-c4ccccc4)c3)C2)n1 (centres undefined)" classlabel="bucket A"
compound=Nc1c2c(nc3ccc(C(=O)Nc4ccc(Br)cc4)cc13)CCCC2 classlabel="bucket C"
compound=CCn1cc(CN2C(=O)C(c3ccccc3)(c3ccccc3)N=C2N)cn1 classlabel="bucket B"
compound=Cn1cncc1CCN(Cc1ccc(-c2ccc(C(F)(F)F)cc2)cc1)C(=O)Cn1c(SCc2cccc(F)c2F)cc(=O)c2ccccc21 classlabel="bucket C"
compound=Oc1[nH]c2ccccc2c1N=NC(=S)N1CCOCC1 classlabel="bucket C"
compound=CC(C)C[C@H](NC(=O)c1ccc(OCCN2CCOCC2)cc1)C(=O)N[C@H](/C=N/NC(=O)OC(C)(C)C)CCc1ccccc1 classlabel="bucket B"

====

# measurementTarget: Calcium-dependent protein kinase 4 (Plasmodium falciparum (isolate 3D7)) (UniProt Q8IBS5)
# Sequence (Q8IBS5 whole entry, looked up): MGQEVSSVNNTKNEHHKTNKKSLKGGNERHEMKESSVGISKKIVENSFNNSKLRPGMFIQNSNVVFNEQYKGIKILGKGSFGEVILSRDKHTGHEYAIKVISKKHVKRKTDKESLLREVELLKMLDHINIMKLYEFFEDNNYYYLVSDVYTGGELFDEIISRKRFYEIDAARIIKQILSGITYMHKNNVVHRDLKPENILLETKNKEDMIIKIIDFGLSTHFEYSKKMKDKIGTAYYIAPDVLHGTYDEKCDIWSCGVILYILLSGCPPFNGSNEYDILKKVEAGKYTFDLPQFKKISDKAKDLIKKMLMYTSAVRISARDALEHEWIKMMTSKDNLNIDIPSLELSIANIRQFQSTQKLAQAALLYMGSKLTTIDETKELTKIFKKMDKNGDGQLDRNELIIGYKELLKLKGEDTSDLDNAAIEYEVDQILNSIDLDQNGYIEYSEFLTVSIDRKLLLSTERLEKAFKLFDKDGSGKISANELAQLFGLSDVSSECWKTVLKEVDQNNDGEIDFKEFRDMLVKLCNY
# experimentDescription: PfCDPK4 kinase inhibitors, biochemical, TCAMS library (AID 1159588)
# protocolConditions: recombinant PfCDPK4, Kinase-Glo ATP depletion luminescence
Measured potencies and affinities stand elsewhere. Activity calls are given as the source filed them. The limit is not given here; nearly all actives have IC50 up to about 0.91 µM.
measureName: outcome

compound=c1ccc(CNc2nc(NCCc3cnc[nH]3)nc(NCc3cccc4ccccc34)n2)cc1 measured=inactive
compound=CCn1ccc2c(N3CCCC3=O)cc(C(=O)N[C@@H](Cc3ccccc3)[C@H](O)CNCc3cccc(OC)c3)cc21 measured=inactive
compound=O=c1cc(NCCCNCc2scc(I)c2I)[nH]c2ccccc12 measured=inactive
compound="O=C(NC1CCN(c2ccnc3cc(Cl)ccc23)C1)c1ccccc1F (centres undefined)" measured=inactive
compound=CCCNCc1ccc(-c2ccc(CN(CCOC)C(=O)c3cccc(C#N)c3)cc2)nc1 measured=inactive
compound=CN1CCN(Cc2cc3cc(NC(=O)/C=C/c4cccc(Cl)c4)ccc3s2)CC1 measured=inactive
compound=Cc1ccc(C)c(Cn2c(N3CCC(C(=O)NCc4cccs4)CC3)nc3ccccc32)c1 measured=inactive
compound=Cc1noc(C)c1-c1ccc2c(Nc3ccc(Cl)cc3)c(C(N)=O)cnc2c1 measured=inactive
compound=NC(=O)C1CCN(Cc2cccc(-c3cccc(-c4nc5ccc(C(F)(F)F)cc5[nH]4)c3)c2)CC1 measured=inactive

====

# experimentDescription: human hepatoma cell viability loss – ATP luminescence, cytotoxicity control for P. falciparum antimalarial project, primary screen (AID 2303);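 also: 0% = DMSO wells and 100% = digitonin-killed cells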
# protocolConditions: HepG2 viability, 24-48 h, at 10 µM
The source made the active and inactive calls.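 The calls were made as follows: active = inhibition above 50%; inactive = the rest.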
Possible outcomes: active, inactive

compound=CNCCNCc1cccc(-c2ccc(-c3nc4c(C)cccc4[nH]3)cc2)c1 classlabel=inactive
compound=COc1cc(-c2ccccc2)ccc1C(=O)Nc1ccc2c(c1)N(C)CCC2 classlabel=inactive
compound=O=C(/C=C/c1ccc(Cl)c(Cl)c1)N1CCN(C(=O)Nc2ccc(F)c(Cl)c2)CC1 classlabel=inactive
compound=Cc1cc(NC(=O)c2ccc(S(=O)(=O)N(Cc3ccccc3)C(C)C)cc2)no1 classlabel=inactive
compound=N#Cc1ccccc1Sc1ccccc1C(=O)Nc1ccc2ccccc2n1 classlabel=inactive
compound=CN1CCC(N2CCN(Cc3ccc(-c4ccc(-c5nc6ccccc6[nH]5)s4)cc3)CC2)CC1 classlabel=active
compound=CC(C)C[C@H](NC(=O)OC(C)(C)C)C(=O)Nc1ccc(Cc2ccc(NC(=O)[C@H](CC(C)C)NC(=O)OC(C)(C)C)cc2)cc1 classlabel=inactive
compound=COc1ccc2nccc(NN=Cc3ccc(N(C)C)cc3)c2c1 classlabel=inactive
compound=CC1(C)N=C(N)N=C(N)N1OCCc1ccc2ccccc2c1 classlabel=active
compound=COc1cccc2c(NN=Cc3cccc(F)c3)ccnc12 classlabel=inactive
compound=Cc1cc(N[C@@H](CC(C)C)C(=O)NCCc2ccccc2)nc(NCc2ccccc2C)n1 classlabel=inactive
compound=CN(c1ccc(NC(=O)Nc2cc(C(F)(F)F)ccc2F)cc1)c1ccnc(NCCN2CCCC2)n1 classlabel=active
compound=Cc1cc(C(F)(F)F)nn1-c1ccc(NC(=O)c2ccco2)cc1 classlabel=inactive
compound=COc1ccc2ncc(C#N)c(CCN3CCC(NCc4ccc5c(c4)OCCO5)CC3)c2c1 classlabel=inactive
compound=Clc1ccc(-c2cc(-c3csc(Nc4ccncc4)n3)on2)cc1 classlabel=inactive
compound="Cc1cc(C2CCN(CCCCNC(=O)c3ccc(-c4ccc(C(F)(F)F)cc4)cc3)CC2)c(C)cc1OCCOC1CCCCO1 (stereo not given)" classlabel=inactive
compound="O=c1ccc2ncc(Cl)c3c2n1CC3CN1CCC(NCc2cc3c(cn2)OCCO3)CC1 (stereo not given)" classlabel=inactive
compound=COc1cc(NC(=O)c2c(-c3c(Cl)cccc3Cl)noc2C)c(OC)cc1Cl classlabel=inactive
compound=CC(C)NCc1cccc(-c2cccc(NC(=O)c3cccc(C#N)c3)c2)c1 classlabel=inactive
compound=COc1ccc2ncc(F)c(CCN3C[C@H](CNCc4ccccc4)[C@H](O)C3)c2n1 classlabel=inactive
compound=CCCC(=O)Nc1ccc(Cl)c(NC(=O)COc2cc(C)ccc2C(C)C)c1 classlabel=inactive
compound=COc1cc2nc(NCc3nc4ccccc4[nH]3)nc(N)c2cc1OC classlabel=inactive
compound=Cc1c(CNCCCNc2cc(=O)c3ccccc3[nH]2)sc(/C=N/O)c1Br classlabel=inactive
compound=CN(C)CCCN1CCN(C(=O)c2cccc(-c3noc(C(F)(F)F)n3)c2)CC1 classlabel=inactive
compound=Brc1cc2c(cc1C=NNc1nc(Nc3ccccc3)nc(Nc3ccccc3)n1)OCO2 classlabel=inactive
compound="O=C1Nc2cccc3c2C1(CCCCCN1CCC(c2c[nH]c4ccncc24)CC1)CCC3 (stereo not given)" classlabel=inactive
compound=CCN(CC)CCCN(Cc1ccc(-c2ccc(C(F)(F)F)cc2)cc1)C(=O)Cn1c(SCc2cccc(F)c2F)cc(=O)c2ccccc21 classlabel=inactive
compound=O=C(Nc1n[nH]c2nc(-c3ccco3)c(Br)cc12)c1ccc(CN2CCCC2)cc1 classlabel=inactive
compound="COc1ccc2c(c1)S(=O)(=O)N=C(N1CCCC1c1ccc(Cl)c(Cl)c1)N2C (stereo not given)" classlabel=inactive
compound="O=C(C=Cc1ccc(Cl)c(Cl)c1)NCCCCCN1CCCC(CCCNC(=O)[C@@H]2C[C@H]2c2ccccc2)C1 (stereo not given in full)" classlabel=inactive
compound=CC(C)(C)CC(C)(C)c1ccc(O)c(C(=O)Nc2ccc([N+](=O)[O-])cc2)c1 classlabel=active
compound=CN(C)CCCNCc1ccc(-c2ccc(CNCCc3ccccc3)cc2)cc1 classlabel=active
compound=Cc1ccccc1C(=O)Nc1cccc(-c2nc3ncccn3c2C)c1 classlabel=inactive
compound=COc1ccc(Cl)cc1-c1nc(C(=O)NCCN2CCCCC2)c(C)s1 classlabel=inactive
compound="CC(N)(Cc1ccc(O)cc1)c1nn[nH]n1 (stereo not given)" classlabel=inactive
compound=O=C(Nc1ccc(-c2ccc(CN3CCNCC3)cc2)cc1)c1cccc(Cl)c1 classlabel=active
compound=O=C(Nc1ccc(OCc2ccccc2)cc1)c1nc2ccccc2nc1Cl classlabel=inactive
compound="COc1ccc2ncc(F)c(CCN3[C@@H]4CC[C@H]3CC(NCc3ccc5c(c3)OCCO5)C4)c2n1 (stereo not given in full)" classlabel=inactive
compound=CC(=NN=C(N)N)c1ccc2ccc3ccccc3c2c1 classlabel=inactive
compound=CCCCN(CCCC)CCNC(=O)c1cc(OC(F)(F)F)ccc1O classlabel=inactive
